Entry source: PubChem BioAssay AID1919013

Tested on: LG0703-F498-PDC complex spheroid growth
Test: Anticancer human tumor LG0703-F498-PDC patient-derived lung adenocarcinoma cell line growth inhibition [AhR]
Details: second compound 3.16 µM; first compound 1 µM; stronger effect = lower value
So basically every entry gets a class from its viability, T/C, ranges being label 0: < 30%; label 1: ≥ 30% and < 60%; label 2: ≥ 60%

Here's what some known entries look like.
Nc1ccccc1NC(=O)c1ccc(CNC(=O)OCc2cccnc2)cc1 + Cc1ccccc1N=Nc1ccc(NC(=O)c2ccnn2C)c(C)c1 :: label 1
NS(=O)(=O)OCC1CC(n2ccc3c(NC4CCc5ccccc54)ncnc32)CC1O (configuration not stated) + Cc1cncc(-c2nc(NCCc3c[nH]c4ccccc34)c3ncn(C(C)C)c3n2)c1 :: label 1
COc1cccc2c1C(=O)c1c(O)c3c(c(O)c1C2=O)CC(O)(C(=O)CO)CC3OC1CC(N)C(O)C(C)O1 (configuration not stated) + Cc1ccccc1N=Nc1ccc(NC(=O)c2ccnn2C)c(C)c1 :: label 1

State the class of the compound shown: Nc1ncn(C2CC(O)C(CO)O2)c(=O)n1 (configuration not stated) + CC(CO)NC(=O)c1cc(-c2ccc(Cl)cc2)nn(-c2cnn(C)c2)c1=O
label 2

Param item: COc1cc(Nc2ncc3c(n2)-c2ccc(Cl)cc2C(c2c(F)cccc2OC)=NC3)ccc1C(=O)O + CC(CO)NC(=O)c1cc(-c2ccc(Cl)cc2)nn(-c2cnn(C)c2)c1=O
label 2

Param item: CC1(C)CCC(CN2CCN(c3ccc(C(=O)NS(=O)(=O)c4ccc(NCC5CCOCC5)c([N+](=O)[O-])c4)c(Oc4cnc5[nH]ccc5c4)c3)CC2)=C(c2ccc(Cl)cc2)C1 + Cc1cncc(-c2nc(NCCc3c[nH]c4ccccc34)c3ncn(C(C)C)c3n2)c1
label 1

Param item: O=C(c1cc(Cc2n[nH]c(=O)c3ccccc23)ccc1F)N1CCN(C(=O)C2CC2)CC1 + Cc1ccccc1N=Nc1ccc(NC(=O)c2ccnn2C)c(C)c1
label 2

Param item: Nc1ncn(C2CC(O)C(CO)O2)c(=O)n1 (configuration not stated) + Cc1ccccc1N=Nc1ccc(NC(=O)c2ccnn2C)c(C)c1
label 2

Param item: COc1cc(C2c3cc4c(cc3C(OC3OC5COC(C)OC5C(O)C3O)C3COC(=O)C23)OCO4)cc(OC)c1O (configuration not stated) + Cc1cncc(-c2nc(NCCc3c[nH]c4ccccc34)c3ncn(C(C)C)c3n2)c1
label 1

Param item: Nc1ccn(C2OC(CO)C(O)C2(F)F)c(=O)n1 (configuration not stated) + Cc1ccccc1N=Nc1ccc(NC(=O)c2ccnn2C)c(C)c1
label 0

Param item: COc1ccc([C@@H](O)c2cc(-c3ncnc4cc(N5CCOCC5)ccc34)c(F)cc2Cl)nn1 + Cc1cncc(-c2nc(NCCc3c[nH]c4ccccc34)c3ncn(C(C)C)c3n2)c1
label 0

Param item: COc1cccc2c1C(=O)c1c(O)c3c(c(O)c1C2=O)CC(O)(C(=O)CO)CC3OC1CC(N)C(O)C(C)O1 (configuration not stated) + CC(CO)NC(=O)c1cc(-c2ccc(Cl)cc2)nn(-c2cnn(C)c2)c1=O
label 0

###

Test system: LG0703-F498-PDC complex spheroid growth
Assay: Anticancer human tumor LG0703-F498-PDC cell line growth inhibition [AhR];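 further: luminescence taken as a proxy for viable cell amount; percent of DMSO vehicle control where 100% means growth equal to vehicle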
Conditions: second compound 1 µM; first compound 1 µM; stronger effect = lower value
Description: Multicellular complex tumor spheroid response to aryl hydrocarbon receptor antagonists in combination with a variety of drugs and investigational agents in selected tumor cell lines […] Compounds. […] If the clinical Cmax for an agent had not been determined, the highest concentration tested was 10 microM (Table 1). […]
property: viability, T/C (%)
Give bare numbers, in %.

Examples with answers:
COc1ccc([C@@H](O)c2cc(-c3ncnc4cc(N5CCOCC5)ccc34)c(F)cc2Cl)nn1 + Cc1cncc(-c2nc(NCCc3c[nH]c4ccccc34)c3ncn(C(C)C)c3n2)c1 :: 92.4
COc1cc(C2c3cc4c(cc3C(OC3OC5COC(C)OC5C(O)C3O)C3COC(=O)C23)OCO4)cc(OC)c1O (stereo not drawn) + Cc1ccccc1N=Nc1ccc(NC(=O)c2ccnn2C)c(C)c1 :: 79.8

As a next step, examine the molecule that follows.
Field request: viability, T/C | item: O=C(c1cc(Cc2n[nH]c(=O)c3ccccc23)ccc1F)N1CCN(C(=O)C2CC2)CC1 + Cc1cncc(-c2nc(NCCc3c[nH]c4ccccc34)c3ncn(C(C)C)c3n2)c1
99.4

###

Test system: LG0703-F498-PDC complex spheroid growth
Experiment: Anticancer human tumor LG0703-F498-PDC cell line growth inhibition [AhR];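 further: luminescence taken as a proxy for viable cell amount; percent of DMSO vehicle control where 100% means growth equal to vehicle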
Conditions: second compound 1 µM; first compound 0.316 µM; stronger effect = lower value
So I've got a bunch of molecules here, and I need their viability, T/C values.

Examples with answers:
CC1COCCN1c1cc(C2(S(C)(=N)=O)CC2)nc(-c2ccnc3[nH]ccc23)n1 (centres undefined) + Cc1ccccc1N=Nc1ccc(NC(=O)c2ccnn2C)c(C)c1 :: 93.7%
Nc1ccccc1NC(=O)c1ccc(CNC(=O)OCc2cccnc2)cc1 + CC(CO)NC(=O)c1cc(-c2ccc(Cl)cc2)nn(-c2cnn(C)c2)c1=O :: 64.5%
COc1cc(Nc2ncc3c(n2)-c2ccc(Cl)cc2C(c2c(F)cccc2OC)=NC3)ccc1C(=O)O + Cc1cncc(-c2nc(NCCc3c[nH]c4ccccc34)c3ncn(C(C)C)c3n2)c1 :: 63%
Nc1ccn(C2OC(CO)C(O)C2(F)F)c(=O)n1 (centres undefined) + Cc1ccccc1N=Nc1ccc(NC(=O)c2ccnn2C)c(C)c1 :: 34.1%
CC1COCCN1c1cc(C2(S(C)(=N)=O)CC2)nc(-c2ccnc3[nH]ccc23)n1 (centres undefined) + CC(CO)NC(=O)c1cc(-c2ccc(Cl)cc2)nn(-c2cnn(C)c2)c1=O :: 88.3%

Give viability, T/C for each of the items listed below.
1. Nc1ncn(C2CC(O)C(CO)O2)c(=O)n1 (centres undefined) + Cc1cncc(-c2nc(NCCc3c[nH]c4ccccc34)c3ncn(C(C)C)c3n2)c1
2. O=C(c1cc(Cc2n[nH]c(=O)c3ccccc23)ccc1F)N1CCN(C(=O)C2CC2)CC1 + CC(CO)NC(=O)c1cc(-c2ccc(Cl)cc2)nn(-c2cnn(C)c2)c1=O
3. O=C(c1cc(Cc2n[nH]c(=O)c3ccccc23)ccc1F)N1CCN(C(=O)C2CC2)CC1 + Cc1cncc(-c2nc(NCCc3c[nH]c4ccccc34)c3ncn(C(C)C)c3n2)c1

89.3%
95.7%
99.8%

Give viability, T/C for each of the items listed below.
1. COc1cc(C2c3cc4c(cc3C(OC3OC5COC(C)OC5C(O)C3O)C3COC(=O)C23)OCO4)cc(OC)c1O (centres undefined) + Cc1ccccc1N=Nc1ccc(NC(=O)c2ccnn2C)c(C)c1
2. Nc1ncn(C2CC(O)C(CO)O2)c(=O)n1 (centres undefined) + Cc1ccccc1N=Nc1ccc(NC(=O)c2ccnn2C)c(C)c1
3. O=C(C=Cc1cccc(S(=O)(=O)Nc2ccccc2)c1)NO + CC(CO)NC(=O)c1cc(-c2ccc(Cl)cc2)nn(-c2cnn(C)c2)c1=O

["99.4%", "75.4%", "77.8%"]

Give viability, T/C for each of the items listed below.
1. CC(C)c1c(-c2ccccc2)nc2c(C#N)c[nH]n2c1=O + Cc1cncc(-c2nc(NCCc3c[nH]c4ccccc34)c3ncn(C(C)C)c3n2)c1
2. O=C(c1cc(Cc2n[nH]c(=O)c3ccccc23)ccc1F)N1CCN(C(=O)C2CC2)CC1 + Cc1ccccc1N=Nc1ccc(NC(=O)c2ccnn2C)c(C)c1
3. NS(=O)(=O)OCC1CC(n2ccc3c(NC4CCc5ccccc54)ncnc32)CC1O (centres undefined) + Cc1ccccc1N=Nc1ccc(NC(=O)c2ccnn2C)c(C)c1
4. COc1cc(Nc2ncc3c(n2)-c2ccc(Cl)cc2C(c2c(F)cccc2OC)=NC3)ccc1C(=O)O + CC(CO)NC(=O)c1cc(-c2ccc(Cl)cc2)nn(-c2cnn(C)c2)c1=O
5. COc1cccc2c1C(=O)c1c(O)c3c(c(O)c1C2=O)CC(O)(C(=O)CO)CC3OC1CC(N)C(O)C(C)O1 (centres undefined) + Cc1cncc(-c2nc(NCCc3c[nH]c4ccccc34)c3ncn(C(C)C)c3n2)c1
6. Nc1ccccc1NC(=O)c1ccc(CNC(=O)OCc2cccnc2)cc1 + Cc1ccccc1N=Nc1ccc(NC(=O)c2ccnn2C)c(C)c1
7. COc1cc(C2c3cc4c(cc3C(OC3OC5COC(C)OC5C(O)C3O)C3COC(=O)C23)OCO4)cc(OC)c1O (centres undefined) + Cc1cncc(-c2nc(NCCc3c[nH]c4ccccc34)c3ncn(C(C)C)c3n2)c1

1. 101%
2. 88.7%
3. 99%
4. 75.1%
5. 53.7%
6. 77.3%
7. 115%

Field request: viability, T/C | item: CC1(C)CCC(CN2CCN(c3ccc(C(=O)NS(=O)(=O)c4ccc(NCC5CCOCC5)c([N+](=O)[O-])c4)c(Oc4cnc5[nH]ccc5c4)c3)CC2)=C(c2ccc(Cl)cc2)C1 + CC(CO)NC(=O)c1cc(-c2ccc(Cl)cc2)nn(-c2cnn(C)c2)c1=O
90.3%
